ASSAY_NAME: Solubility of Formula I Form I in solvents, gravimetric analysis of mother liquors (Example 1)
Format: physicochemical
ASSAY_CONTEXT: organic solvent or mixture, thermodynamic from solid; MIBK; 5° C.; read-out: Solubility at 5° C. temperature
READOUT_KIND: solubility (µg/mL)
Use µg/mL as the unit, but write only the number.

Challenge: What measured solubility goes with COc1cc2c(cc1OC)[C@H]1C[C@@H](OC(=O)[C@@H](N)C(C)C)[C@H](CC(C)C)CN1CC2.Cc1ccc(S(=O)(=O)O)cc1.Cc1ccc(S(=O)(=O)O)cc1 [Form I] ?
Response given: 6000
